The origin of these recorded values is patent US20200407452A1.

Molecular target: human MET ECD mutant H (mutations 2, 4) (human) (UniProt P08581)
Assay: ELISA, WT or mutant hMET ECD coated
MEASURE_NAME: % binding (EMAX) vs WT MET ECD (%)
Give just the number in %; leave the unit off.

71C3 chimeric llama-human IgG1 mAb (antibody, V domains shown, human IgG1 CH1-CH2-CH3 and human CL lambda) VH: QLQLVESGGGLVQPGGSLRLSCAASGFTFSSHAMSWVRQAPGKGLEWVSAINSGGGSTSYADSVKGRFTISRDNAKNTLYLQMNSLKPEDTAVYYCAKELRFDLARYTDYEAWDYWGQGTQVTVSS VL: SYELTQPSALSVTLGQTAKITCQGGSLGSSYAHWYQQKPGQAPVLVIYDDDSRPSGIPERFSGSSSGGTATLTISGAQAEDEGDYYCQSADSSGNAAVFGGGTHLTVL    61.6
71D4 chimeric llama-human IgG1 mAb (antibody, V domains shown, human IgG1 CH1-CH2-CH3 and human CL lambda) VH: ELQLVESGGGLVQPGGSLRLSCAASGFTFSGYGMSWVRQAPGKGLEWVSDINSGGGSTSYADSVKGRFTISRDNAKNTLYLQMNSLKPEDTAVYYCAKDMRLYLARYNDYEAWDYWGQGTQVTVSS VL: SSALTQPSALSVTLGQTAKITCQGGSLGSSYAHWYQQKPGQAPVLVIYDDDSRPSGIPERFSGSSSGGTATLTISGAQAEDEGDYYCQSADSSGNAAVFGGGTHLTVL    58.7

Please examine the following record next.
IN: For 71G2 chimeric llama-human IgG1 mAb (antibody, V domains shown, human IgG1 CH1-CH2-CH3 and human CL lambda; also called 71G2 Human IgG1/lambda) VH: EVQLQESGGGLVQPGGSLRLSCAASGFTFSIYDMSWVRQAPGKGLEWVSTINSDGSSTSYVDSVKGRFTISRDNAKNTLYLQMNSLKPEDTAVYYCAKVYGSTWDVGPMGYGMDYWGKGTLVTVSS VL: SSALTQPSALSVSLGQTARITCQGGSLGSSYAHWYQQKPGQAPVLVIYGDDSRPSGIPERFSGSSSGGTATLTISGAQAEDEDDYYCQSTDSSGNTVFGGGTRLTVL , write its % binding (EMAX) vs WT MET ECD.
OUT: 40.2
